ASSAYED TARGET: Histamine H1 receptor (Homo sapiens, UniProt P35367); note: assay procedure not described here
Sequence (P35367 whole entry): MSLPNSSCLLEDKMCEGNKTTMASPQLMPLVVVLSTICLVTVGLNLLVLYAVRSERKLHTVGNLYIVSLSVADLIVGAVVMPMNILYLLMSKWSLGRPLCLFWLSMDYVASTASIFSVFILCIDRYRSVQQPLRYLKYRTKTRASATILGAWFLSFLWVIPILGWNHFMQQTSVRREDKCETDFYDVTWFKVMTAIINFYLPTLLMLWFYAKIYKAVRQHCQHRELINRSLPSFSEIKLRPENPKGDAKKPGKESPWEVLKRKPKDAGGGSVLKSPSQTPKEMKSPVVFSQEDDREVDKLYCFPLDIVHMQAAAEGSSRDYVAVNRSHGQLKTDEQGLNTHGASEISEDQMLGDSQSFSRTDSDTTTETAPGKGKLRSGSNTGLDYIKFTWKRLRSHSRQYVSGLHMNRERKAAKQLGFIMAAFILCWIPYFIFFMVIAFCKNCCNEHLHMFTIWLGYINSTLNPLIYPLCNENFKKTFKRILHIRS
Assay type: functional, cell-based
ATTRIBUTE MEASURED: AC50

For CCC(C)C(CC)C(N)=O (stereo not given) [VALNOCTAMIDE] , what is its reported AC50?
> 30 µM

Name the reported AC50 value associated with the compound OC[C@H]1O[C@@](CO)(O[C@H]2O[C@H](CO)[C@@H](O)[C@H](O)[C@H]2O)[C@@H](O)[C@@H]1O
> 30 µM

May I ask what AC50 has been recorded for OCc1cc(C(O)CNCCCCCCOCCCCc2ccccc2)ccc1O (stereo not given) ?
> 30 µM

More entries:
Report AC50 for CCN1CCCC1CNC(=O)c1cc(S(=O)(=O)CC)c(N)cc1OC (stereo not given) [AMISULPRIDE] please.
> 30 µM

Can you share its AC50? I mean this compound: CC(C)N(CCC(C(N)=O)(c1ccccc1)c1ccccn1)C(C)C (stereo not given) [DISOPYRAMIDE]
> 30 µM

Reported AC50 for COc1ccccc1Oc1c(NS(=O)(=O)c2ccc(C(C)(C)C)cc2)nc(-c2ncccn2)nc1OCCO : what is it?
> 30 µM

For C[C@H](Cc1ccc(O)c(O)c1)[C@@H](C)Cc1ccc(O)c(O)c1 , what is its reported AC50?
23 µM

###

Here the recorded AC50 is given for each entry.
ASSAYED TARGET: UniProt:P0DMS8
Sequence (P0DMS8 whole entry): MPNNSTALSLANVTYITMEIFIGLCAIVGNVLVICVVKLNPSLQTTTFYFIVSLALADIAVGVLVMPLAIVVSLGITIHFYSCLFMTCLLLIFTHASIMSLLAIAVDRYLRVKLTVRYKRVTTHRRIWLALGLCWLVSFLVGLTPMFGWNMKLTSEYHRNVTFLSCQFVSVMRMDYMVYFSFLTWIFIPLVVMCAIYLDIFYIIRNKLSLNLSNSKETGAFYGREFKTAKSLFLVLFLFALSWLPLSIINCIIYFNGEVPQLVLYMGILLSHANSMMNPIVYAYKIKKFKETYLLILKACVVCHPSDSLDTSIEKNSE

Some solved cases for reference:
Looking for the measured AC50 of CN1CCN(C2=Nc3ccccc3Oc3ccc(Cl)cc32)CC1 , can you help?
> 30 µM

So what does the record say about AC50 for CN(C(=O)c1c(O)c2ccccc2n(C)c1=O)c1ccccc1 ?
> 30 µM

Endpoint output: AC50 of CC(C)N(CCC(C(N)=O)(c1ccccc1)c1ccccn1)C(C)C (stereo not given) [DISOPYRAMIDE] . Value?
> 30 µM

Name the recorded AC50 for CCC(C)C1(CC)C(=O)NC(=O)NC1=O (stereo not given) .
> 30 µM

Moving on to another molecule below.
Consider the molecule COc1cc2nccc(Oc3ccc(NC(=O)C4(C(=O)Nc5ccc(F)cc5)CC4)cc3)c2cc1OC [CABOZANTINIB] and give its measured AC50.
3.7 µM

###

ASSAYED TARGET: Alpha-2C adrenergic receptor (Homo sapiens, UniProt P18825); note: assay procedure not described here
Sequence (P18825 whole entry): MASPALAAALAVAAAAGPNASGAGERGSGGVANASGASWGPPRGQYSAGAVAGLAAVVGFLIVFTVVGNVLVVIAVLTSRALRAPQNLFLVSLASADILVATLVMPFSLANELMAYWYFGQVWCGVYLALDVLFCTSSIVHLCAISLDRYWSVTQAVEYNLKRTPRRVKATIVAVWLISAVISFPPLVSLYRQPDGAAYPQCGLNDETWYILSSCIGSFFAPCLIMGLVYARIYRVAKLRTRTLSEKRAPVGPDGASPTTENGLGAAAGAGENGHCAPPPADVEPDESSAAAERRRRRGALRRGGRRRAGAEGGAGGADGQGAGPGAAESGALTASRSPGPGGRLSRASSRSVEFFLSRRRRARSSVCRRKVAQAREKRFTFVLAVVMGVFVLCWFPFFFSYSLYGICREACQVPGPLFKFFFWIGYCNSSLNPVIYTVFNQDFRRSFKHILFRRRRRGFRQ
Assay type: functional
Property: AC50; scope: individual molecules

Examples with their reported AC50 follow.
# query: AC50 of entry Clc1ccc(C(Cn2ccnc2)OCc2ccsc2Cl)c(Cl)c1 (stereo unspecified) [TIOCONAZOLE]
6.5 µM

Query: AC50; subject: CC12CC3CC(C)(C1)CC(N)(C3)C2 [MEMANTINE]
> 10 µM

Sample CC(=O)N[C@@H](CS)C(=O)O [ACETYLCYSTEINE] — what was its AC50?
> 30 µM

Can you look up the measured AC50 of CC(C(=O)O)c1ccc(CC2CCCC2=O)cc1 (stereo unspecified) [LOXOPROFEN] for me?
> 30 µM

Need AC50, item CC(=O)O[C@]1(C(C)=O)CC[C@H]2[C@@H]3C=C(C)C4=CC(=O)CC[C@@H]4[C@H]3CC[C@@]21C [NOMEGESTROL ACETATE]
> 30 µM

Further cases:
What does the record list as AC50 for C=C[C@H]1C[N@@]2CC[C@H]1C[C@@H]2[C@@H](O)c1ccnc2ccc(OC)cc12 [QUINIDINE] ?
18 µM

What value of AC50 has been recorded for this entry: C[N@+]1(CCF)[C@@H]2CC[C@H]1C[C@@H](OC(=O)C(O)(c1ccccc1)c1ccccc1)C2
> 30 µM

Dear colleague, I am looking for the recorded AC50 of the following molecule: C[C@H]1c2cccc(O)c2C(=O)C2=C(O)[C@]3(O)C(=O)C(C(N)=O)=C(O)[C@@H](N(C)C)[C@@H]3[C@@H](O)[C@@H]21 [DOXYCYCLINE]
> 10 µM

Given the entry CC(C)[C@H](N)C(=O)OCC(CO)OCn1cnc2c(=O)nc(N)[nH]c21 (stereo partly specified) [VALGANCICLOVIR] , report its measured AC50.
> 30 µM

// AC50 lookup, key: CCOC(=O)c1cncn1[C@H](C)c1ccccc1 [ETOMIDATE]
> 10 µM

Endpoint output: AC50 of C[C@H](CCC(=O)O)[C@H]1CC[C@H]2[C@@H]3[C@@H](O)C[C@@H]4C[C@H](O)CC[C@]4(C)[C@H]3CC[C@]12C [URSODIOL] . Value?
> 30 µM
